Where do the numbers come from? From PubChem BioAssay.

Listed here are compounds together with their documented normalised cell number.
run_description: differential killing of epithelial or mesenchymal cells, primary screen, imaging, PC-3E GFP, TEM4-18 mCherry, co-culture (AID 1345086);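 also: cells exposed to compound for 72 h before imaging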
experimental_parameters: imaging cell counts, measured here: epithelial PC-3E GFP cell survival, at 1 µM

Below: 5 compounds and their reported normalised cell number.
Please give the measured normalised cell number for this compound: CN1CCCC(n2nc(Cc3ccc(Cl)cc3)c3ccccc3c2=O)CC1 (stereo unspecified)
1.16

Try the compound CCc1nc(N)nc(N)c1-c1ccc(Cl)cc1
0.9

Try the compound O=C1CCC(N2C(=O)c3ccccc3C2=O)C(=O)N1 (stereo unspecified)
1.23

Try the compound CO[C@@]1(NC(=O)Cc2cccs2)C(=O)N2C(C(=O)O)=C(COC(N)=O)CS[C@@H]21
0.99

Try the compound CCc1cccc2c3c([nH]c12)C(CC)(CC(=O)O)OCC3 (stereo unspecified)
0.9

More entries:
Please give the measured normalised cell number for this compound: CCOC(=O)C1=C(COCCN)NC(C)=C(C(=O)OC)C1c1ccccc1Cl (stereo unspecified)
1.26

###

run_description: glucagon-like peptide 1 release enhancers, primary assay, NCI-H716 cell line, NPC library (AID 1117341)
experimental_parameters: NCI-H716 cells, at 10 µM, stronger effect = higher value
Listed here are compounds together with their documented GLP1 secretion stimulation.
Respond with the bare value in %.

Below: 5 compounds and their reported GLP1 secretion stimulation.
Please give the measured GLP1 secretion stimulation for this compound: CC[N+](CC)(CC)CCOC(=O)C(C1CCCC1)C1CCCC1
1.6

Try the compound CC(CSC(=O)c1ccccc1)C(=O)N1C[C@@H](Sc2ccccc2)C[C@H]1C(=O)O (some centres undefined)
-4

Try the compound CC(=O)Oc1ccc(C(=C2CCCCC2)c2ccc(OC(C)=O)cc2)cc1
7.4

Try the compound O=C(C1CCCCC1)N1CC(=O)N2CCc3ccccc3C2C1 (centres undefined)
-2.7

Try the compound COC(=O)c1cc(Cl)c(NC(C)=O)cc1OC
1.2

More entries:
Please give the measured GLP1 secretion stimulation for this compound: N#CSCC(=O)O
-0.1

Try the compound COc1ccccc1N1CCN(CCCNc2cc(=O)n(C)c(=O)n2C)CC1
-0.1

Try the compound Nc1nc(-c2ccccc2)c(Br)c(=O)[nH]1
3.9

###

run_description: LFS_MB_1R medulloblastoma cell growth inhibition, synergistic combos for chromothripsis tumors, cisplatin or BGB combos (AID 1671452);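 also: cells exposed for 96 hours before readout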
experimental_parameters: LFS_MB_1R medulloblastoma cells, measured here: combination with cisplatin, at 0.5 µM, stronger effect = higher value
Listed here are compounds together with their documented inhibition.
Respond with the bare value in %.

Please give the measured inhibition for this compound: CCn1cc(C(=O)O)c(=O)c2cc(F)c(N3CCNCC3)cc21
26.1

Try the compound O=C(O)CCCc1ccccc1
-26.8

Try the compound CC(=O)OCC(CCn1cnc2cnc(N)nc21)COC(C)=O
-15.8

Try the compound O=c1[nH]cc(F)c(=O)[nH]1
11.9

Try the compound CCN(CC)CCCC(C)Nc1c2ccc(Cl)cc2nc2ccc(OC)cc12 (stereo unspecified)
4.45

More entries:
Please give the measured inhibition for this compound: O=C1c2c(O)ccc(O)c2C(=O)c2c(NCCNCCO)ccc(NCCNCCO)c21
72.8

###

Listed here are molecules together with their documented EGFP/DsRed ratio.
test_target: Cellular tumor antigen p53 (Homo sapiens) (UniProt P04637)
Sequence (P04637 whole entry, looked up): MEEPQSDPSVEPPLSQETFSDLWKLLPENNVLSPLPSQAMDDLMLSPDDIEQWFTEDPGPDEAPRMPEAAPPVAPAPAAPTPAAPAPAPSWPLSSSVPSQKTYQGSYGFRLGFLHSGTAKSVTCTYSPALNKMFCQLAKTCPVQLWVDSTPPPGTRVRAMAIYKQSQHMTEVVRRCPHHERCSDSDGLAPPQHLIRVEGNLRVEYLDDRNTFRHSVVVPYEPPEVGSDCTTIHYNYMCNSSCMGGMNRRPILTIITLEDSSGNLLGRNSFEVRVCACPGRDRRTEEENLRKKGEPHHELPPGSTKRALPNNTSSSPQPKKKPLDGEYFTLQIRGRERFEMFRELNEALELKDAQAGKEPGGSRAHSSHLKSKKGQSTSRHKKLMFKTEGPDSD
run_description: kinase inhibitors altering GFP-p53 stability in HPV16-positive cells, imaging, known kinase inhibitor set, EGFP/DsRed ratio (AID 1053116);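 also: cells exposed to compounds for 24 h at 37 °C before reading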
experimental_parameters: stronger effect = higher value
Activity calls are given as the source filed them. How the calls were made is not given here.

Below: 4 molecules and their reported EGFP/DsRed ratio.
Please give the measured EGFP/DsRed ratio for this molecule: CCS(=O)(=O)c1ccc(OC)c(Nc2nccc(N(C)c3ccc4c(C)[nH]nc4c3)n2)c1
0.0751 (inactive)

Try the molecule Nc1c(C(=O)c2cccc(C#CCN3CCCCC3)c2)cnn1-c1ccc(F)cc1
0.0667 (inactive)

Try the molecule Nc1[nH]nc2nc(-c3cccs3)cc(C(F)(F)F)c12
0.138 (inactive)

Try the molecule CCN1CCC(CC(=O)Nc2n[nH]c3nc(-c4cccs4)c(Br)cc23)CC1
0.138 (inactive)

Turning now to a further molecule:
Please give the measured EGFP/DsRed ratio for this molecule: Fc1cccc(COc2ccc(Nc3ncnc4sc(-c5ccco5)cc34)cc2Cl)c1
0.122 (inactive)

###

run_description: HCT116 colon cancer cell growth inhibition, primary screen, CellTiter-Glo luminescence, NPC library (AID 1117342)
experimental_parameters: at 20 µM (top of the series)
test_readout: inhibition of viability (%)
Respond with the bare value in %.

Below: 4 molecules and their reported inhibition of viability.
Please give the measured inhibition of viability for this molecule: O=C(CO)[C@@H](O)[C@H](O)[C@@H](O)C(=O)O
2.2

Try the molecule COc1cc([C@@H]2c3cc4c(cc3[C@@H](O[C@@H]3O[C@@H]5CO[C@@H](C)O[C@@H]5[C@H](O)[C@@H]3O)[C@H]3COC(=O)[C@H]23)OCO4)cc(OC)c1O
53.9

Try the molecule COC(=O)Nc1nc2ccc(C(=O)c3ccccc3)cc2[nH]1
56.4

Try the molecule CCOC(=O)C(=O)c1csc(NC=O)n1
1.1

More entries:
Please give the measured inhibition of viability for this molecule: CCC1(c2ccccc2)C(=O)NCNC1=O
1

Try the molecule c1ccc2c(c1)CCc1ccccc1N2
-2.9

###

run_description: SU-DIPG-XXV glioma cell viability, MIPE5.0 library, qHTS (AID 1347068);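 as to IC50: cells exposed to compound for 48 hours before viability readout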
Inconclusive results are not listed. The source made the active and inactive calls. No cut-off is given here; in the data, nearly all actives have IC50 up to about 30 µM.
Would you mind answering with one of these outcomes? active, inactive

Solved cases (6 shown):
Look up the recorded call for Cc1ccc(C)c(OCCCC(C)(C)C(=O)O)c1 in this test.
inactive

Try the compound O=S(=O)(O)CCS
inactive

Try the compound Cc1cccc(CN2CCN(C(c3ccccc3)c3ccc(Cl)cc3)CC2)c1 (configuration not stated)
active

Try the compound C[C@@H]1C[C@H]2[C@@H]3CCC4=CC(=O)C=C[C@]4(C)[C@@]3(F)[C@@H](O)C[C@]2(C)[C@@]1(O)C(=O)CO
inactive

Try the compound CCCNCC(O)COc1ccccc1C(=O)CCc1ccccc1 (configuration not stated)
inactive

Try the compound CC(C[N+](C)(C)C)OC(N)=O (configuration not stated)
inactive

More entries:
Look up the recorded call for CN(CCOc1ccc(CC2SC(=O)NC2=O)cc1)c1ccccn1 (configuration not stated) in this test.
inactive

Try the compound c1ccc2[nH]c(-c3cscn3)nc2c1
inactive

Try the compound COc1cc([C@@H]2c3cc4c(cc3[C@H](O)[C@H]3COC(=O)[C@H]23)OCO4)cc(OC)c1OC
active

Try the compound CC(C)NCC(O)c1ccc(O)c(O)c1 (configuration not stated)
inactive

Try the compound NC12CC3CC(CC(C3)C1)C2
inactive

Try the compound CC(=O)OCC(CCn1cnc2cnc(N)nc21)COC(C)=O
inactive

###

run_description: modulators of glucocorticoid suppression of NF-kB, cell-based, luciferase, IL-1B stimulus, dexamethasone (AID 624486);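 also: 100% = mean signal of vehicle control wells on the plate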
experimental_parameters: NF-kB luciferase reporter, IL-1B + dexamethasone, luminescence; actives lie on both sides, concentration not given here
Activity calls are given as the source filed them. The rule behind the calls is not given here.
Would you mind answering with one of these outcomes? active, inactive

Solved cases (2 shown):
Look up the recorded call for Cn1cc(C2=C(c3cn(CCCCO)c4ccccc34)C(=O)NC2=O)c2ccccc21 in this test.
inactive

Try the compound CNC(=O)c1cncc(/C=C/c2c(C)cccc2C)c1
inactive

More entries:
Look up the recorded call for COc1cccc(-n2ncc3c(N/N=C/c4ccc(F)cc4)ncnc32)c1 in this test.
inactive

Try the compound O=C1NC(=NCCc2ccccc2F)SC1=Cc1ccc2ncccc2c1
inactive

Try the compound Cn1cc(C2=C(c3c4n(c5ccccc35)CCNC4)C(=O)NC2=O)c2ccccc21
inactive

Try the compound CN(C)CCOc1ccc(-c2cc(-c3ccc4c(c3)CC/C4=N/O)c(-c3ccncc3)o2)cc1
inactive

Try the compound CC(=O)NC(Cc1ccc(OP(=O)(O)O)cc1)C(=O)NC1CCC(=O)N2CCCC(C(=O)Nc3cccc4ccccc34)N2C1=O (stereo unspecified)
inactive

Try the compound NS(=O)(=O)c1cccc(-c2ccc3c(NC(=O)C4CC4)n[nH]c3c2)c1
inactive

Try the compound O=C1NC(=Nc2ccccc2)SC1=Cc1ccc2ncccc2c1
inactive

Try the compound Nc1nc(-c2ccccn2)c(-c2ccc3ncccc3n2)s1
inactive

Try the compound CN1C(=O)C(c2c[nH]c3ccccc23)=C(c2c[nH]c3ccccc23)C1=O
inactive

###

Listed here are compounds together with their documented fraction signal.
run_description: IRF3 reporter activation in THP-1 macrophages, cell-based, PMA-stimulated THP-1, luminescence (AID 1053176)
experimental_parameters: PMA-differentiated THP-1, IRF3 reporter luminescence; stronger effect = higher value
Give a plain numeric answer without units written out.

Please give the measured fraction signal for this compound: NS(=O)(=O)c1ccc(N=Nc2c(O)[nH]c3cccc(CCc4ccncc4)c23)cc1
-0.003

Try the compound CCOc1ccc2c(-c3ccnc(Nc4cc(OC)cc(C(F)(F)F)c4)n3)cnn2n1
-0.001

Try the compound CCN1CCC(CC(=O)Nc2n[nH]c3nc(-c4cccs4)c(Br)cc23)CC1
0.006

Try the compound O=C1NC(=O)C(c2cccc(Cl)c2)=C1Nc1ccc(Cl)c(C(=O)O)c1
0

Try the compound Cn1cc(C2=C(c3c4n(c5ccccc35)CCCCC4)C(=O)NC2=O)c2ccccc21
-0.005

Try the compound COc1cc(N2CCN(C(C)C)CC2)ccc1Nc1nc(Nc2cccc3ncccc23)c2cc[nH]c2n1
-0.0005

Try the compound COc1cccc(C(=O)c2sc(Nc3ccc(N4CCN(C(C)C)CC4)cc3)nc2N)c1
-0.02

Try the compound CCc1cccc(CC)c1/C=C/c1cncc(C(=O)NC)c1
-0.0125

Try the compound Cn1c(=O)c(Oc2ccccc2F)cc2cnc(NC3CCOCC3)nc21
0.001

Turning now to a further compound:
Please give the measured fraction signal for this compound: CNC(C#Cc1c(F)ccc2c1C(=Cc1[nH]ccc1OC)C(=O)N2)CO (stereo not given)
0.001
